target: ryanodine receptor (skeletal sarcoplasmic reticulum membrane vesicles) (Oryctolagus cuniculus); construct: skeletal sarcoplasmic reticulum membrane vesicles; from tissue; host or cells: skeletal muscle sarcoplasmic reticulum membrane vesicles; assay: biochemical; type: binding; conditions: restated for adjustment; read-out: IC50 value (Table I value as restated in text)
propertyMeasured: IC50 (nM)

- compound: "CC1CCC2(O)C3(C)CC4(O)OC2(C1OC(=O)CCNC(=O)OCc1ccccc1)C1(O)C3(O)C(OC(=O)c2ccc[nH]2)C(O)(C(C)C)C41C (stereo not shown)"
  recordedMeasurement: 12.3

----------
target: ryanodine receptor (skeletal sarcoplasmic reticulum membrane vesicles) (Oryctolagus cuniculus, UniProt P11716); construct: skeletal sarcoplasmic reticulum membrane vesicles; from tissue; host or cells: skeletal muscle sarcoplasmic reticulum membrane vesicles; assay: biochemical; format: binding; conditions: Table I; displacement of 6.7 nM [3H]ryanodine; mean ± standard deviation of replicates; read-out: IC50
Sequence (P11716 whole entry): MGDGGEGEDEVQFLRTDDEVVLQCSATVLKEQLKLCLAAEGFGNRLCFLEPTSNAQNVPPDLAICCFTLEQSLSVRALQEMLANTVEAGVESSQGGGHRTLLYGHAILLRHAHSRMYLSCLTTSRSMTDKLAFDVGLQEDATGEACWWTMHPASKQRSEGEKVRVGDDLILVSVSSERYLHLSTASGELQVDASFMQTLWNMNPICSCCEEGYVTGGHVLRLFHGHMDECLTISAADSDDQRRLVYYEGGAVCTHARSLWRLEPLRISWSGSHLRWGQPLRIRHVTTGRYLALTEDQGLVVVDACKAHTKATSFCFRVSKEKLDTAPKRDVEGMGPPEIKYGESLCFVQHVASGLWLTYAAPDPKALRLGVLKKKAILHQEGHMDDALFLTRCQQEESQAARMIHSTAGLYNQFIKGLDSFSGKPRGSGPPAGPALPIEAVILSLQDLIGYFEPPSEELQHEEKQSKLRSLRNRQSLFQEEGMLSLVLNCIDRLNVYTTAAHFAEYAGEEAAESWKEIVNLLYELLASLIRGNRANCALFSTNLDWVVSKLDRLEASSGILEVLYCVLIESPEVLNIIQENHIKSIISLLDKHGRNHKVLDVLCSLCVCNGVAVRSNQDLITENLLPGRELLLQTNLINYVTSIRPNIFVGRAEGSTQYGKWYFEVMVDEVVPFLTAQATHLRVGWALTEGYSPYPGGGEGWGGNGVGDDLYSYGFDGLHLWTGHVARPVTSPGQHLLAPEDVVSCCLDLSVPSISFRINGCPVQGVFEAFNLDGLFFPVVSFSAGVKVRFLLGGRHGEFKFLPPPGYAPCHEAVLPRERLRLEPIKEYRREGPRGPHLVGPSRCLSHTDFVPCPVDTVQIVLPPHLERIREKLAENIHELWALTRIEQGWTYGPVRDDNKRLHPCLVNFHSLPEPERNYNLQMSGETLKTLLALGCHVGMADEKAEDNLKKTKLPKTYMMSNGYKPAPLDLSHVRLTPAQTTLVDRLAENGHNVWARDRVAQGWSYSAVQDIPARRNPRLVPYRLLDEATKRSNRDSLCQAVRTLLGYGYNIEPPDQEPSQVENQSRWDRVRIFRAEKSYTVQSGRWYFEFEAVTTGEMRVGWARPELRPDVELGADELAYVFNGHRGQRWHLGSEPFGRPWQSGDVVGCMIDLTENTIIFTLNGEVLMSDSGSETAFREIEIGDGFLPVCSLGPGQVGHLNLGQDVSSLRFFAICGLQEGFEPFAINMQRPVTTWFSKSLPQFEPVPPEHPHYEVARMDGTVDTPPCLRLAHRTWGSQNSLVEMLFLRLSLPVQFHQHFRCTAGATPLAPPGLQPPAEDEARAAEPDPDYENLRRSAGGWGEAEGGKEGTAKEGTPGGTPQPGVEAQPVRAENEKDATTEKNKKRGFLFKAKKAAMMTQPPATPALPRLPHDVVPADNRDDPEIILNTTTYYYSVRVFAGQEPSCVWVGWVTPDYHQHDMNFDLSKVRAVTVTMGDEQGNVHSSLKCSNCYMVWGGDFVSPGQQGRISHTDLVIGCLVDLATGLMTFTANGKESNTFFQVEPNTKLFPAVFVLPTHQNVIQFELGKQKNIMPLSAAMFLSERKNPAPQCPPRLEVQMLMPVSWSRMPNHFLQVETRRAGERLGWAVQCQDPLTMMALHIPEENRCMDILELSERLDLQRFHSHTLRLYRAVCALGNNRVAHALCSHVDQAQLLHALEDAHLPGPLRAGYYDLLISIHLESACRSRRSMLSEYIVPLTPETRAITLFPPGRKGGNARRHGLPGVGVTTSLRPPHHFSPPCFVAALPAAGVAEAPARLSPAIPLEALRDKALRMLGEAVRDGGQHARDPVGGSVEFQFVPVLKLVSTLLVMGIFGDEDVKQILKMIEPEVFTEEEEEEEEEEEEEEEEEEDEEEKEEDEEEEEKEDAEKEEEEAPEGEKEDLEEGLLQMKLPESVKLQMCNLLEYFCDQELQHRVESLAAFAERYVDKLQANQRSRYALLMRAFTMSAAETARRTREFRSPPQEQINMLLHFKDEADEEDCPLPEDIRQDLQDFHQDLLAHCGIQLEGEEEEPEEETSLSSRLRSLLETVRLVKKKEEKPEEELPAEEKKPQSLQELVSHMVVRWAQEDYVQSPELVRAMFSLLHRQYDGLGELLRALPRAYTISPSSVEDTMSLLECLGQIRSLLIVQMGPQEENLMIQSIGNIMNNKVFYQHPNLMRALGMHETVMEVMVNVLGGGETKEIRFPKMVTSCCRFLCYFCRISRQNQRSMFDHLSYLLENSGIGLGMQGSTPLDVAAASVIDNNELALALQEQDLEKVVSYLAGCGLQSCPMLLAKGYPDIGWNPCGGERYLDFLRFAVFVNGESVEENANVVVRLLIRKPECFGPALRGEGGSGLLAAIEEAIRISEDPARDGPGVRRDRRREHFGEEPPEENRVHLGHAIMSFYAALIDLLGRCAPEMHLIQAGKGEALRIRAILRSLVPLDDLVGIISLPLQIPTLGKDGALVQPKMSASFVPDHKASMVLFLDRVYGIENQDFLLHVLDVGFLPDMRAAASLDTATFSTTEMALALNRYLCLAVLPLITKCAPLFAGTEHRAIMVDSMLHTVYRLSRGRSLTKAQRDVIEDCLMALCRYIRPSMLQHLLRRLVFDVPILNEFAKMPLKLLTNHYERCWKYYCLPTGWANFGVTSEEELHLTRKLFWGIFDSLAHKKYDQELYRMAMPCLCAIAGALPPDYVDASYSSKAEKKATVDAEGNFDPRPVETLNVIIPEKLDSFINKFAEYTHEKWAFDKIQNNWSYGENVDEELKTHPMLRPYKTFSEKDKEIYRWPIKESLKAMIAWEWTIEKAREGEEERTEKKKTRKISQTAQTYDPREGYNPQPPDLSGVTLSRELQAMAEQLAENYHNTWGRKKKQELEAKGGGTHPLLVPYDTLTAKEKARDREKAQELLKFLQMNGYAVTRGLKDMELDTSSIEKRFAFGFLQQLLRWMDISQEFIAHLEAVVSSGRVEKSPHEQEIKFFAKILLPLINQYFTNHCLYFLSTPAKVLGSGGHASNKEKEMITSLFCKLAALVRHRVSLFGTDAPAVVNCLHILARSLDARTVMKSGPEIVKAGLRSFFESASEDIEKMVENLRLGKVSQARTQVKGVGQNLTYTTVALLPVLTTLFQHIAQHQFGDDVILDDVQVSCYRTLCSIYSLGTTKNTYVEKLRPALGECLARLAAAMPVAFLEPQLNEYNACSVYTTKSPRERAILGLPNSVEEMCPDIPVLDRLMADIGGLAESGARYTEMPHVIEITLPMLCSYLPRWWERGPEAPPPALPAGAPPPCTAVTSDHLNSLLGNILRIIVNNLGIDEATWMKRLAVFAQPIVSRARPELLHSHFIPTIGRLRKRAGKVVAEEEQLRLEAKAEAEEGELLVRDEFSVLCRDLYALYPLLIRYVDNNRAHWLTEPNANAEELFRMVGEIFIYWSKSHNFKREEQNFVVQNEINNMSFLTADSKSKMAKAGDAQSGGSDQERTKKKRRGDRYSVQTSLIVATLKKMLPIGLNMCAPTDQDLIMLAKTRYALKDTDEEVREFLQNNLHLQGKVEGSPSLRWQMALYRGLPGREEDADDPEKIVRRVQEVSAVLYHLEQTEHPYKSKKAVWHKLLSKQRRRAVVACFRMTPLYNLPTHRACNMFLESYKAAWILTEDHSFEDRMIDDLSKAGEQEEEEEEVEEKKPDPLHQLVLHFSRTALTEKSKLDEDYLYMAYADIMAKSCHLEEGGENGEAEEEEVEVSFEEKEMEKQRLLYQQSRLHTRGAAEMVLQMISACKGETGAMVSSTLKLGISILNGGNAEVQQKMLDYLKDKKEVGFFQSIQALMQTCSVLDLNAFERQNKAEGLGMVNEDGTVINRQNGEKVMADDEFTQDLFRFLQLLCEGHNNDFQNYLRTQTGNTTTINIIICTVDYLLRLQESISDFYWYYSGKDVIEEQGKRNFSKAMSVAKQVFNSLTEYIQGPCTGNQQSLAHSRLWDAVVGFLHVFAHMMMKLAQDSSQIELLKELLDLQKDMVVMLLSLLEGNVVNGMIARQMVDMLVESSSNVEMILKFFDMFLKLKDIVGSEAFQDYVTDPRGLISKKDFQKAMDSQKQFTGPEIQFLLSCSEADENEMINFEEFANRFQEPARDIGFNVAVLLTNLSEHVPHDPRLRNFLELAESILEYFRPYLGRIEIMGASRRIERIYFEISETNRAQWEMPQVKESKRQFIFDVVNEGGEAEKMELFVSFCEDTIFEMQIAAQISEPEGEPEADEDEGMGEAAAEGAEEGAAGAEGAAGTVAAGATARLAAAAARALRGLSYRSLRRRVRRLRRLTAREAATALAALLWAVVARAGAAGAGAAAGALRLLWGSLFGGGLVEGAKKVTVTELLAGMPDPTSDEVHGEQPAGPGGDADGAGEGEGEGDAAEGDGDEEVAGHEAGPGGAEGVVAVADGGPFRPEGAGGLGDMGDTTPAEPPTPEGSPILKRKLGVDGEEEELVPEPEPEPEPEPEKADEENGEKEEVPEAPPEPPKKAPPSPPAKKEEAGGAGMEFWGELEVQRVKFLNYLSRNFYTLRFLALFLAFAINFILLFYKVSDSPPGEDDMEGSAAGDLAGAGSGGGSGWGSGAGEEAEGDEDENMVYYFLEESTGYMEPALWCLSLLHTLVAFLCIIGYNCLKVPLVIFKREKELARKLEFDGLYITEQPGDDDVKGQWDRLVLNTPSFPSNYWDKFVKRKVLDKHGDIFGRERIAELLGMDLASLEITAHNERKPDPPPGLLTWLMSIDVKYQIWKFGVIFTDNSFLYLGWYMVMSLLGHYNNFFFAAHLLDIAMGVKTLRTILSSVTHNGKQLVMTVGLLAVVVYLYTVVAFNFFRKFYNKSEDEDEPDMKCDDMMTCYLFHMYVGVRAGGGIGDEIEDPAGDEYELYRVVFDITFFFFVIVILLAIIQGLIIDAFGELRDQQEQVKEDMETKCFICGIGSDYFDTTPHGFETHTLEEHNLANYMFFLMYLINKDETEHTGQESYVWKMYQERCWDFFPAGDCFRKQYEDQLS
pIC50: −log10 of the molar value.
Parameter: pIC50. Scope: all listed entries.
propertyMeasured: pIC50

- compound: "CC1CCC2(O)C3(C)CC4(O)OC2(C1OC(=O)CCNC(=O)OCc1ccccc1)C1(O)C3(O)C(OC(=O)c2ccc[nH]2)C(O)(C(C)C)C41C (stereo not shown) [IV]"
  propertyMeasured: "pIC50"
  recordedMeasurement: 7.91
- compound: "CC1CCC2(O)C3(C)CC4(O)OC2(C1OC(=O)CCNC(=O)CCCCC1SCC2NC(=O)NC21)C1(O)C3(O)C(OC(=O)c2ccc[nH]2)C(O)(C(C)C)C41C (stereo not drawn) [XIV, O10eq -N-Biotinlyl-β-Alanyl-Ryanodine]"
  propertyMeasured: "pIC50"
  recordedMeasurement: 7.19
- compound: "CC1=CC(C)=[N+]2C1=Cc1ccc(CCC(=O)NCCC(=O)OC3C(C)CCC4(O)C5(C)CC6(O)OC34C3(O)C5(O)C(OC(=O)c4ccc[nH]4)C(O)(C(C)C)C63C)n1[B-]2(F)F (stereo not shown) [XV]"
  propertyMeasured: "pIC50"
  recordedMeasurement: 7.39
- compound: "CC1=C(C(C)C)C(OC(=O)c2ccc[nH]2)C2(O)C3(C)CC(=O)OC4(C(OC(=O)CCN)C(C)CCC34O)C12O (stereo not drawn) [V-I, O10eq -β-Alanyl-Anhydroryanodine]"
  propertyMeasured: "pIC50"
  recordedMeasurement: 7.43
- compound: "C=C1CCC2(O)C3(C)CC4(O)OC2(C1OC(=O)CCNC(=O)C12CC5CC(CC(C5)C1)C2)C1(O)C3(O)C(OC(=O)c2ccc[nH]2)C(O)(C(C)C)C41C (stereo not shown) [III]"
  propertyMeasured: "pIC50"
  recordedMeasurement: 7.14
- compound: "C=C1CCC2(O)C3(C)CC4(O)OC2(C1OC(=O)CCNC(=O)c1ccc(OCCCC)cc1)C1(O)C3(O)C(OC(=O)c2ccc[nH]2)C(O)(C(C)C)C41C (stereo not shown) [XIII]"
  propertyMeasured: "pIC50"
  recordedMeasurement: 7.55
- compound: "C=C1CCC2(O)C3(C)CC4(O)OC2(C1OC(=O)CCNC(=O)c1ccccc1)C1(O)C3(O)C(OC(=O)c2ccc[nH]2)C(O)(C(C)C)C41C (stereo not shown) [II]"
  propertyMeasured: "pIC50"
  recordedMeasurement: 7.60
- compound: "CC1CCC2(O)C3(C)CC4(O)OC2(C1OC(=O)CCNC(=O)c1cc(N=[N+]=[N-])ccc1[N+](=O)[O-])C1(O)C3(O)C(OC(=O)c2ccc[nH]2)C(O)(C(C)C)C41C (stereo not shown) [VI]"
  propertyMeasured: "pIC50"
  recordedMeasurement: 7.44
- compound: "CC1CCC2(O)C3(C)CC4(O)OC2(C1OC(=O)CNC(=O)OCc1ccccc1)C1(O)C3(O)C(OC(=O)c2ccc[nH]2)C(O)(C(C)C)C41C (stereo not shown) [I]"
  propertyMeasured: "pIC50"
  recordedMeasurement: 7.65
- compound: "C=C1CCC2(O)C3(C)CC4(O)OC2(C1OC(=O)CCNC(=O)c1ccc(I)cc1)C1(O)C3(O)C(OC(=O)c2ccc[nH]2)C(O)(C(C)C)C41C (stereo not drawn) [XII, p-Iodobenzoyl-β-alanyl-dehydroryanodine]"
  propertyMeasured: "pIC50"
  recordedMeasurement: 7.80

Source: patent US5679701A
